- Method summary: Cytotoxic assay, VERO cells
- Format: cell-based
- Test settings: African green monkey
Reported IC50 at 5 day by item:

{"Structure as smiles": "CC(=NNC(=O)CN1c2c(-c3ccccc3)n[nH]c2-c2ccccc2S1(=O)=O)c1cc2ccccc2oc1=O", "IC50 at 5 day": "> 100 µM"}
{"Structure as smiles": "CC(=NNC(=O)CN1c2c(-c3ccccc3)n[nH]c2-c2ccccc2S1(=O)=O)c1ccc2ccccc2c1", "IC50 at 5 day": "< 1 µM"}
{"Structure as smiles": "CC(=NNC(=O)CN1c2c(-c3ccccc3)n[nH]c2-c2ccccc2S1(=O)=O)c1sc(N)nc1C", "IC50 at 5 day": "> 100 µM"}
